B1: Neutrophil cytosol factor 2, residues 456 to 514; numbered along this chain, P19878 (parent)
chain: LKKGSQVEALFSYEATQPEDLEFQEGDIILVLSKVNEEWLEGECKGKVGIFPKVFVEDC

variants of: B1; test: abundance fitness (aPCA) (normalised: wild type 0, dead -1); higher = more abundant; growth selection in yeast, the domain comes from the species named; conditions: Homo sapiens
Note that class boundaries on abundance fitness are lower range: < -0.5; middle range: ≥ -0.5 and < -0.2; upper range: ≥ -0.2

V48Y
upper range
E41F
upper range
Q24S
upper range

[in] The entry to classify is L1V ; which class holds it?
[out] middle range

[in] The entry to classify is C59S ; which class holds it?
[out] upper range

[in] The entry to classify is L30E ; which class holds it?
[out] upper range

[in] The entry to classify is F11G ; which class holds it?
[out] upper range

[in] The entry to classify is L40H ; which class holds it?
[out] lower range

[in] The entry to classify is K47I ; which class holds it?
[out] lower range

[in] The entry to classify is V54G ; which class holds it?
[out] middle range

[in] The entry to classify is K45A ; which class holds it?
[out] lower range
